system_under_test: the molecule itself
assay_comment: native gel or EMSA
Give stoichiometry N for every item shown.

Query string: Quick one: give measured stoichiometry N for HA-NvSTING stably expressed in MEF Sting-/- cells (MEF^NvSTING) (natural protein, Nematostella vectensis) MRRAEENNGFGTIPKRRNQHTPFYASIGMIVVIIVAFTSYHITSYGDDRNRAMRQYSFTFSLAYLAFLVGELLRRCCLFAEEYRHIETRYNGSLKKAIQTTFSFGHNNVLFVASLLFFVVFVASNDPNGSSSVIQGNSTAEPHTEMRQTSGWQGLWGQFIISALLTPLVVHLLGLRELSKVEESQLNEKENKNVADGLAWSYYFGYLKFVLPELEKQIEKTSKFRSKEKFVKKMFILIPSNCFWDDKIPGSDYDPQNRITFEGNTEPLEKTRGGVFLRHYKHSVYEIKDGENEPWFCIMEYATPLLTLYDMSVAQPGELSREERDAQVVVFLRKLQDILEGDRACQGKYELVTFSPDRDLADVMLRKLKDSELEIGG
Result string: ≥ 4

Query string: Quick one: give measured stoichiometry N for HA-MmSTING stably expressed in MEF Sting-/- cells (MEF^MmSTING) (natural protein, Mus musculus) MPYSNLHPAIPRPRGHRSKYVALIFLVASLMILWVAKDPPNHTLKYLALHLASHELGLLLKNLCCLAEELCHVQSRYQGSYWKAVRACLGCPIHCMAMILLSSYFYFLQNTADIYLSWMFGLLVLYKSLSMLLGLQSLTPAEVSAVCEEKKLNVAHGLAWSYYIGYLRLILPGLQARIRMFNQLHNNMLSGAGSRRLYILFPLDCGVPDNLSVVDPNIRFRDMLPQQNIDRAGIKNRVYSNSVYEILENGQPAGVCILEYATPLQTLFAMSQDAKAGFSREDRLEQAKLFCRTLEEILEDVPESRNNCRLIVYQEPTDGNSFSLSQEVLRHIRQEEKEEVTMNAPMTSVAPPPSVLSQEPRLLISGMDQPLPLRTDLI
Result string: ≥ 4

Query string: Quick one: give measured stoichiometry N for HA-MbSTING stably expressed in MEF Sting-/- cells (MEF^MbSTING) (natural protein, Monosiga brevicollis) MMVNLSDLSHLSQRGWAQVFVTLAAAAISIFYFSFSPFEVAAGICASIAAAGAVPLLFDAVHYLIAFCISAPDARPPLRTVWTKTRLQRWSGLSILTFIVLACGLYFASPSPMSASNLFAVFALSLCNSVFSAMVAPRCGRLEVVDLATHPNTVLFRDFGAASAMSYWHGYLQHIAGDRAALEERFRDSDVGGMRVPRKLYILVPQDCEVNASDNKYEGLKATEHYISPKPITIGGVVDREMGKHTLYTPSESAETASVAFAMELASPLNTMKNALKDAAEGLLELQSEAFYLTLRGILKQEGVLDQGNDEGMIKLVWGKNRSEVLKKMRAEDQYAMP
Result string: 4
